Assay: chemical genetic growth profiling, strain panel (AID 1159580);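 further: tested at 20 µM; growth read once vehicle control cultures reached saturation at 30 °C; 1 = growth at the plate median or of vehicle wells; lower values mean less growth of the strain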
Conditions: S. cerevisiae deletion strains, growth OD, locus YEL061C, strain CIN8 (second series), hits give low values
Among all 5,500 compounds or so, about 2,000 (36%) were called active. Not shown: some 18% with an inconclusive outcome. Some of the results follow.
normalized growth values by entry
Would you mind answering with just the numeric figure?

>>> recorded_number("COc1cc(NS(=O)(=O)c2ccc(N)cc2)ncn1")
0.96
>>> recorded_number("CC1=CC2C(C(C)C)CCC(C)(O)C2CC1 (configuration not stated)")
1
>>> recorded_number("CC(NCCC(c1ccccc1)c1ccccc1)c1ccccc1 (configuration not stated)")
1
>>> recorded_number("NC1C[C@H]1c1ccccc1 (some centres not stated)")
0.977
>>> recorded_number("O=c1[nH]cnc2c1ncn2C1O[C@H](CO)[C@@H](O)[C@H]1O (some centres not stated)")
0.989
>>> recorded_number("COc1ccc(C2C(=O)c3ccccc3C2=O)cc1")
0.975

Then there is this compound:
Given item CNCC[C@@H](Oc1ccccc1)c1ccccc1 , the value recorded as its normalized growth is 0.988

* * *

Experiment: chemical genetic growth profiling, strain panel (AID 1159580);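 further: tested at 20 µM; growth read once vehicle control cultures reached saturation at 30 °C; 1 = growth at the plate median or of vehicle wells; lower values mean less growth of the strain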
Settings: S. cerevisiae deletion strains, growth OD, locus YDL035C, strain GPR1
Out of some 5,500 compounds screened, about 2,000 (36%) were called active. Roughly 18% stayed inconclusive and do not appear here. Rule as the data show it: active = normalized growth mostly below about 0.91 (no sharp cut-off); inconclusive = no clear call, values can overlap the other calls; inactive = mostly above about 0.92. Some of the results follow.
Reply using exactly one outcome from active, inactive

>>> answer_label("CCOc1ccc(NC(C)=O)cc1")
"inactive"
>>> answer_label("COc1cc2c(cc1OC)[C@@H]1C(=O)c3ccc4c(c3O[C@@H]1CO2)CC(C(C)C)O4 (stereo partly specified)")
"inactive"
>>> answer_label("NCC1OC(OC2C(CO)OC(OC3C(O)C(N)CC(N)C3OC3OC(CO)C(O)CC3N)C2O)C(N)C(O)C1OC1OC(CO)C(O)C(O)C1O (stereo unspecified)")
"inactive"
>>> answer_label("C=C(C)[C@H]1Cc2c(ccc3c2O[C@@H]2COc4cc(OC)c(OC)cc4[C@@H]2C3=O)O1")
"inactive"
>>> answer_label("CCC1C(=O)OCC1Cc1cncn1C (stereo unspecified)")
"inactive"

We now examine a further compound.
Task item: How did this test come out for CC(=O)[O][Hg][c]1ccccc1 ?
Reply: active

* * *

Test: chemical genetic growth profiling, strain panel (AID 1159580);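 further: tested at 20 µM; growth read once vehicle control cultures reached saturation at 30 °C; 1 = growth at the plate median or of vehicle wells; lower values mean less growth of the strain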
Details: S. cerevisiae deletion strains, growth OD, locus YDR334W, strain swr1, hits give low values
In all, about 5,500 compounds went through this assay and about 2,000 (36%) were called active. Not shown: some 18% with an inconclusive outcome. The list shows a part of the results.
normalized growth values by entry

>>> result("COc1ccc2c(=O)ccoc2c1")
"1.02 (inactive)"

Given item CC1=NN(c2ccccc2)C(=O)C1 , the value recorded as its normalized growth is 0.992 (inactive)

Given item COc1c2ccoc2cc2oc(C)cc(=O)c12 , the value recorded as its normalized growth is 1 (inactive)

Given item O=C(OC[C@H]1O[C@H](OC(=O)c2cc(O)c(O)c(OC(=O)c3cc(O)c(O)c(O)c3)c2)[C@H](OC(=O)c2cc(O)c(O)c(OC(=O)c3cc(O)c(O)c(O)c3)c2)[C@@H](OC(=O)c2cc(O)c(O)c(OC(=O)c3cc(O)c(O)c(O)c3)c2)[C@@H]1OC(=O)c1cc(O)c(O)c(OC(=O)c2cc(O)c(O)c(O)c2)c1)c1cc(O)c(O)c(OC(=O)c2cc(O)c(O)c(O)c2)c1 , the value recorded as its normalized growth is 0.632 (active)

Given item CC1(C)C(=O)[C@@H]2C[C@@]3(O)C4=CC(=O)O[C@@H](c5ccoc5)[C@]4(C)CCC3[C@@](C)(C2=O)[C@H]1CC(=O)O (stereo not given in full) , the value recorded as its normalized growth is 1.01 (inactive)
